# Test system: HepG2
# experiment description: Cytotoxicity against human HepG2 cells assessed as reduction in cell viability incubated for 18 hrs by celltiter-glo assay
# particulars: hepg2, 18 h

smiles entry	CC50
O=C1c2ccccc2C(Cc2ccnnc2)(Cc2c(F)cncc2F)c2ccccc21	> 150 µM
O=C1c2ccccc2C(Cc2ccnc(F)c2)(Cc2ccnc(F)c2)c2ccccc21	132 µM

---

# experiment description: Kinetic solubility in […] % DMSO/water at 3.2 uM to 100 uM incubated for 18 hrs by spectrometry
# Type: physicochemical
# particulars: […] DMSO/water; read-out: Kinetic_solubility
Measured solubility kinetic at 18 h accompanies every entry in the list below.
readout: solubility kinetic at 18 h (µM)

smiles entry	readout	val
O=C1c2ccccc2C(Cc2ccncc2)(Cc2ccncc2)c2ccccc21	solubility kinetic at 18 h	27
O=C1c2ccccc2C(Cc2ccnc(F)c2)(Cc2ccnc(F)c2)c2ccccc21	solubility kinetic at 18 h	27
